Reported protein stability index values follow for various sequences
Test system: Saccharomyces cerevisiae;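 note: PSI is a weighted mean of sequencing reads over stability bins, variants kept only with over 10 reads, mCherry proximal and sfGFP distal, peptide attached via GGGS linker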
ASSAY_METHOD_TEXT: protein stability index of tFT-peptide fusion (C-terminal peptide) (PSI (0-1 scale)); higher = more stable (slower turnover)
PROTOCOL_CONDITIONS: genetic background: das1 deletion; temperature: 37 C
VALUE_TYPE: protein stability index

[
  {
    "SEQUENCE_CONTENT": "LFLIFFSFLFLC",
    "VALUE_MEASURED": 0.261
  },
  {
    "SEQUENCE_CONTENT": "GGTFWDGLVLVH",
    "VALUE_MEASURED": 0.484
  },
  {
    "SEQUENCE_CONTENT": "CYRRCQAFLVLV",
    "VALUE_MEASURED": 0.449
  },
  {
    "SEQUENCE_CONTENT": "RRGGNIVWYCLV",
    "VALUE_MEASURED": 0.714
  },
  {
    "SEQUENCE_CONTENT": "IFSTQMVRFSLL",
    "VALUE_MEASURED": 0.769
  },
  {
    "SEQUENCE_CONTENT": "IRHALHFRVVAV",
    "VALUE_MEASURED": 0.568
  },
  {
    "SEQUENCE_CONTENT": "LASSCYRHLLVV",
    "VALUE_MEASURED": 0.434
  },
  {
    "SEQUENCE_CONTENT": "FLLVGLLIVGCG",
    "VALUE_MEASURED": 0.349
  },
  {
    "SEQUENCE_CONTENT": "SRLMLPLSPLVC",
    "VALUE_MEASURED": 0.502
  },
  {
    "SEQUENCE_CONTENT": "FFLLTCFLLPSV",
    "VALUE_MEASURED": 0.526
  },
  {
    "SEQUENCE_CONTENT": "LVDPFAALRHVV",
    "VALUE_MEASURED": 0.71
  },
  {
    "SEQUENCE_CONTENT": "PPSLPPLISFSP",
    "VALUE_MEASURED": 0.766
  },
  {
    "SEQUENCE_CONTENT": "CLCYFLFYFLFV",
    "VALUE_MEASURED": 0.572
  },
  {
    "SEQUENCE_CONTENT": "TTATLSFAICAV",
    "VALUE_MEASURED": 0.473
  },
  {
    "SEQUENCE_CONTENT": "CRQDWMCFVYLS",
    "VALUE_MEASURED": 0.187
  },
  {
    "SEQUENCE_CONTENT": "GSLFANYNLKLF",
    "VALUE_MEASURED": 0.771
  },
  {
    "SEQUENCE_CONTENT": "YPFSLVLGVFAF",
    "VALUE_MEASURED": 0.456
  },
  {
    "SEQUENCE_CONTENT": "WVFYAVRWRTWN",
    "VALUE_MEASURED": 0.54
  },
  {
    "SEQUENCE_CONTENT": "LIEMVTTRYRLC",
    "VALUE_MEASURED": 0.717
  },
  {
    "SEQUENCE_CONTENT": "VGIFKVCALVLR",
    "VALUE_MEASURED": 0.462
  },
  {
    "SEQUENCE_CONTENT": "FLVIILFFLYMR",
    "VALUE_MEASURED": 0.232
  },
  {
    "SEQUENCE_CONTENT": "YHDKLRAIEKFF",
    "VALUE_MEASURED": 0.74
  },
  {
    "SEQUENCE_CONTENT": "VCDPWVFIRCLV",
    "VALUE_MEASURED": 0.603
  },
  {
    "SEQUENCE_CONTENT": "VVSLAVVGRFLV",
    "VALUE_MEASURED": 0.7
  },
  {
    "SEQUENCE_CONTENT": "FKKIKGKIEKKN",
    "VALUE_MEASURED": 0.726
  },
  {
    "SEQUENCE_CONTENT": "PLLSATLTRRLA",
    "VALUE_MEASURED": 0.692
  },
  {
    "SEQUENCE_CONTENT": "VGVSCVVCVCGV",
    "VALUE_MEASURED": 0.514
  },
  {
    "SEQUENCE_CONTENT": "GRHRRIRYVKTS",
    "VALUE_MEASURED": 0.744
  }
]
